Assay: Antiplatelet activity in human platelet rich plasma assessed as inhibition of U46619-induced platelet aggregation preincubated for 5 mins followed by U46619 stimulation by turbidimetry
Type: functional
measured.attribute: pIC50
Answer as the number alone; pIC50 is minus log10 of concentration in mol/L.

I am curious: what pIC50 value has been reported for "O=C([C@@H]1CCC(=O)N1Cc1ccccc1Br)N1CC2CC(CN(Cc3ccccc3)C2)C1" ?
5.11

----------
Measured Activity by item
System: Mus musculus
Assay: Antithrombotic activity in Swiss albino mouse assessed as protection against collagen-epinephrine induced pulmonary thromboembolism at 30 umol/kg, po after 1 hr
Type: functional
Note: a bare number is incomplete; add the unit.

Example entries and their recorded answers appear below.
O=C([C@@H]1CCC(=O)N1Cc1ccc(Br)cc1)N1CC2CC(CN(Cc3ccccc3)C2)C1: 40%
CC(C)(C)OC(=O)N1CC2CC(C1)CN(C(=O)[C@@H]1CCC(=O)N1Cc1ccccc1)C2: 40%
O=C([C@@H]1CCC(=O)N1Cc1ccccc1Br)N1CC2CC(CN(Cc3ccccc3)C2)C1: 40%
CC(C)(C)OC(=O)N1CC2CC(C1)CN(C(=O)[C@@H]1CCC(=O)N1Cc1ccc(C#N)cc1)C2: 55%
Cc1ccc(S(=O)(=O)N2CC3CC(CN(C(=O)[C@@H]4CCC(=O)N4Cc4ccccc4Br)C3)C2)cc1: 55%
CC(C)(C)OC(=O)N1CC2CC(C1)CN(C(=O)[C@@H]1CCC(=O)N1Cc1ccc(Cl)cc1)C2: 30%
O=C(c1ccccc1)N1CC2CC(C1)CN(C(=O)[C@@H]1CCC(=O)N1Cc1ccccc1Br)C2: 60%
Cc1ccc(CN2C(=O)CC[C@H]2C(=O)N2CC3CC(CN(C(=O)OC(C)(C)C)C3)C2)cc1: 40%

Field: next molecule
I am curious: what Activity value has been reported for "COc1ccc(CN2C(=O)CC[C@H]2C(=O)N2CC3CC(CN(C(=O)OC(C)(C)C)C3)C2)cc1" ?
45%

----------
System: Mus musculus
Assay: Antithrombotic activity in Swiss albino mouse assessed as protection against collagen-epinephrine induced pulmonary thromboembolism at 30 umol/kg, po after 1 hr
Assay type: functional
measured.attribute: Activity (%)
A number alone suffices; assume %.

Example entries and their recorded answers appear below.
Cc1ccc(CN2C(=O)CC[C@H]2C(=O)N2CC3CC(CN(Cc4ccccc4)C3)C2)cc1: 25
Cc1ccc(CN2C(=O)CC[C@H]2C(=O)N2CC3CC(CN(C(=O)c4ccccc4)C3)C2)cc1: 40
COc1ccc(CN2C(=O)CC[C@H]2C(=O)N2CC3CC(CN(Cc4ccccc4)C3)C2)cc1: 30
CC(C)(C)OC(=O)N1CC2CC(C1)CN(C(=O)[C@@H]1CCC(=O)N1Cc1cccc3ccccc13)C2: 30

Field: next compound
I am curious: what Activity value has been reported for "Cc1ccc(CN2C(=O)CC[C@H]2C(=O)N2CC3CC(C2)CN(S(=O)(=O)c2ccc(C)cc2)C3)cc1" ?
40

----------
Tested on: Mus musculus
Assay: Antithrombotic activity in Swiss albino mouse assessed as protection against collagen-epinephrine induced pulmonary thromboembolism at 30 umol/kg, po after 1 hr
Assay type: functional
measured.attribute: Activity (%)
A number alone suffices; assume %.

Cc1ccc(CN2C(=O)CC[C@H]2C(=O)N2CC3CC(CN(Cc4ccc(Cl)cc4)C3)C2)cc1: 35
O=C([C@@H]1CCC(=O)N1S(=O)(=O)c1ccccc1)N1CC2CC(CN(Cc3ccccc3)C2)C1: 30
O=C([C@@H]1CCC(=O)N1Cc1c(Cl)cccc1Cl)N1CC2CC(CN(Cc3ccccc3)C2)C1: 40
O=C([C@@H]1CCC(=O)N1Cc1ccccc1)N1CC2CC(CN(Cc3ccccc3)C2)C1: 30
O=C([C@@H]1CCC(=O)N1Cc1ccc(Cl)cc1)N1CC2CC(CN(Cc3ccccc3)C2)C1: 30

I am curious: what Activity value has been reported for "CC(C)(C)OC(=O)N1CC2CC(C1)CN(C(=O)[C@@H]1CCC(=O)N1Cc1ccccc1Br)C2" ?
50

I am curious: what Activity value has been reported for "CC(C)(C)OC(=O)N1CC2CC(C1)CN(C(=O)[C@@H]1CCC(=O)N1Cc1c(Cl)cccc1Cl)C2" ?
30

I am curious: what Activity value has been reported for "Cc1ccc(CN2C(=O)CC[C@H]2C(=O)N2CC3CC(CN(Cc4ccc(Br)cc4)C3)C2)cc1" ?
50

I am curious: what Activity value has been reported for "Cc1ccc(CN2C(=O)CC[C@H]2C(=O)N2CC3CC(CN(Cc4ccccc4Br)C3)C2)cc1" ?
30
